Entries get a class label from measured logP. See ranges: bin 1: < 3; bin 2: ≥ 3 and < 4; bin 3: ≥ 4

Query :: Which bin should I file O=C(NCCCN1CCc2ccccc2C1)C1CCCC1 under?
Result :: bin 2

Query :: Into which category would you place O=C(CC1CC2CCC1C2)NCCCCN1CCc2ccccc2C1 (centres undefined) ?
Result :: bin 3

Query :: Class (by measured logP) for O=C(NCCCN1CCc2ccccc2C1)C1CC1
Result :: bin 1

Query :: Bin? O=C(NCCCN1CCc2ccccc2C1)C1CCC2CCCC21 (centres undefined)
Result :: bin 3

Query :: Into which category would you place O=C(NCCCN1CCc2ccccc2C1)C12CC3CC(CC(C3)C1)C2 ?
Result :: bin 3

Query :: Which category does the recorded logP put CC(C)(C)C(=O)NCCN1CCc2ccccc2C1 in?
Result :: bin 2

Query :: Using the reported logP, which band applies to CC(=O)NCCN1CCc2ccccc2C1 ?
Result :: bin 1

Query :: Which of the defined bands does the recorded logP of CC(=O)NCCCCN1CCc2ccccc2C1 sit within?
Result :: bin 1

Query :: Exercise: read the entry O=C(NCCN1CCc2ccccc2C1)C1CCC1 and state which class it falls under.
Result :: bin 1

Query :: Given O=C(CC1CC2CCC1C2)NCCN1CCc2ccccc2C1 (centres undefined) , name the class its logP places it in.
Result :: bin 3

Query :: Lab note: which band did O=C(NCCCN1CCc2ccccc2C1)C1CCC1 land in?
Result :: bin 2

Query :: State the class of the molecule shown: O=C(NCCCCN1CCc2ccccc2C1)C12CC3CC(CC(C3)C1)C2
Result :: bin 3

Query :: For this molecule, which bin applies? CC(=O)NCCCN1CCc2ccccc2C1
Result :: bin 1

----------
assay endpoint: logP
API note: the answer field is a bare number with no unit suffix.

Query :: Tell me the measured logP of O=C(NCCCCN1CCc2ccccc2C1)C1CCC1 , please.
Result :: 3.3

Query :: Name the recorded logP for CC(C)(C)C(=O)NCCCN1CCc2ccccc2C1 .
Result :: 3.46

Query :: Which logP is reported for this compound? O=C(NCCCN1CCc2ccccc2C1)C1CCCCC1
Result :: 3.44

Query :: Look up logP: CC(C)C(=O)NCCN1CCc2ccccc2C1
Result :: 2.87

Query :: So what's the measured logP for this one? CC(C)C(=O)NCCCCN1CCc2ccccc2C1
Result :: 2.93

Query :: # get_value(readout='logP', item= O=C(NCCN1CCc2ccccc2C1)C1CCC2CCCC21 (stereo not drawn) )
Result :: 4.37

Query :: Item O=C(NCCN1CCc2ccccc2C1)C12CC3CC(CC(C3)C1)C2 has what recorded logP?
Result :: 4.61

Query :: Please give the measured logP for this compound: O=C(NCCCCN1CCc2ccccc2C1)C1CCC2CCCC21 (stereo not drawn)
Result :: 4.46

Query :: Which value of logP has been reported for O=C(NCCN1CCc2ccccc2C1)C1CCCCC1 in the records?
Result :: 3.14

Query :: Name the recorded logP for CC(C)C(=O)NCCCN1CCc2ccccc2C1 .
Result :: 2.56

Query :: // logP lookup, key: CC(C)(C)C(=O)NCCCCN1CCc2ccccc2C1
Result :: 3.31

Query :: Item under review: O=C(NCCN1CCc2ccccc2C1)C1CC1 . Reported logP?
Result :: 2.76

Query :: Form field: reported logP of O=C(NCCN1CCc2ccccc2C1)C1CCCC1
Result :: 3.52

Every entry's value here was drawn from the SangsterLogP compilation.
